Tested on: M19-MEL melanoma
Assay: NCI tumour cell line growth inhibition, 48 h
reported-endpoint: TGI

Some molecules with known TGI results, for comparison:
• CCN(CC)/[N+]([O-])=N/OCC(C)O (stereo not given) = > 100 µM
• Cc1ccc(-c2cc(=O)c3cc(C)c(C)c(C(=O)O)c3o2)cc1[N+](=O)[O-] = > 100 µM
• COC(=O)C1=C(O)c2cc3c(cc2[C@H](c2cc(OC)c(OC)c(OC)c2)C1)OCO3 = 10.1 µM
• CCOC(=O)C1=C(C)N(C2OC(COC(C)=O)C(OC(C)=O)C(OC(C)=O)C2OC(C)=O)C(=O)NC1c1ccccc1 (stereo not given) = > 100 µM

stdin: May I ask what TGI has been recorded for `CCOC(=O)/C=C/c1c[nH]c(=O)[nH]c1=O` ?
stdout: > 75 µM

====

Test system: CAKI-1 renal
Experiment: NCI tumour cell line growth inhibition, 48 h
Entries and their TGI values follow.

A selection of reference data follows.
• O=C(Nc1ccc(N2CCNCC2)cn1)c1[nH]ncc1Nc1ncnc2sccc12 = > 100 µM
• Nc1ncnc2c1cnn2COCC(O)CO (stereo not drawn) = > 100 µM

Could you now consider this next molecule?
stdin: Query (molecule): CC1(C)/C(=N\Nc2ccc([N+](=O)[O-])cc2[N+](=O)[O-])C2CCC1C2 (stereo not drawn) ; field requested: TGI
stdout: > 100 µM

====

Catalogue of GI50 values
Test system: MALME-3M melanoma
Experiment: NCI tumour cell line growth inhibition, 48 h

Below, 3 compounds whose answers are already recorded.
- C=C1C(=O)O[C@H]2[C@H]1CC/C(Cn1cc(-c3ccsc3)nn1)=C\CC[C@@]1(C)O[C@@H]21: 1.61 µM
- O=C(Nc1ccc(N2CCNCC2)cn1)c1[nH]ncc1Nc1ncnc2sccc12: 1.43 µM
- N#Cc1ccc(NC(=O)Nc2nc3ccc(OC(F)(F)F)cc3s2)cc1: 0.843 µM

Turning now to a further record.
stdin: Sample NC(Cc1c[nH]c2cc(F)ccc12)C(=O)O (centres undefined) — what was its GI50?
stdout: 859 µM

====

System: EKVX NSCLC
Experiment: NCI tumour cell line growth inhibition, 48 h
reported-endpoint: GI50

Illustrative cases are given below, each with its answer.
• O=S(=O)(NCCNc1cc(-c2cn(-c3ccccc3)nc2-c2cccc(O)c2)ccn1)c1ccc(Br)cc1 = 2.76 µM
• CN1CCN(c2ccc(-c3cccc(CN4CCOCC4)c3)cc2NC(=O)c2c[nH]c(=O)cc2C(F)(F)F)CC1 = 69.7 µM
• CCN(CC)CCOc1ccc(Cc2ccccc2)cc1 = 26.4 µM

stdin: # GI50 lookup, item CCCC(=O)Nc1c(I)cc(I)c(CC(CC)C(=O)O)c1I (stereo not given)
stdout: > 100 µM

stdin: Entry `N#Cc1ccc(NC(=O)Nc2nc3ccc(OC(F)(F)F)cc3s2)cc1` : reported GI50 = ?
stdout: 1.36 µM

====

Each item that follows carries a reported GI50.
Test system: SR leukemia
Assay: NCI tumour cell line growth inhibition, 48 h

* O=C1CCC(N2C(=O)c3cccc(NCCOCCOCCNC(=O)c4cc5c(o4)C(=O)c4ccccc4C5=O)c3C2=O)C(=O)N1 (stereo not drawn) | 1760 nM
* Cc1cc(C)c(O)c(CNCCCNCc2cc(C)cc(C)c2O)c1 | 2060 nM

Shift focus to the following entry.
stdin: # lookup: GI50 of `COc1ccccc1N1CCN(CCCOc2ccc(C(=O)/C=C3/C(=O)Nc4ccccc43)cc2)CC1`
stdout: 2570 nM

====

Test system: K-562 leukemia
Assay: NCI tumour cell line growth inhibition, 48 h; in the data active means GI50 below about 0.43 µM; inactive means the rest
Your reply should match one of these outcome classes. active, inactive

Look over these answered cases.
• COc1c(N2CCN(CN3C(=O)C(=O)c4ccccc43)C(C)C2)c(F)cc2c(=O)c(C(=O)O)cn(C3CC3)c12 (stereo not drawn) = inactive
• C=C(C)[C@@H]1CC[C@]2(CN)CC[C@]3(C)[C@H](CC[C@@H]4[C@@]5(C)CCC(N)[C@@](C)(CO)[C@@H]5CC[C@]43C)[C@@H]12 (stereo partly drawn) = active
• C[C@]12CCc3sc(Nc4ccc(F)cc4F)nc3C1=CC[C@@H]1[C@@H]2CC[C@]2(C)C(=O)CC[C@@H]12 = inactive

stdin: # lookup: test call for CCCC(=O)Nc1c(I)cc(I)c(CC(CC)C(=O)O)c1I (stereo not drawn)
stdout: inactive

stdin: What classification did O=C1CCC(N2C(=O)c3cccc(NCCOCCOCCNC(=O)c4cc5c(o4)C(=O)c4ccccc4C5=O)c3C2=O)C(=O)N1 (stereo not drawn) end up with in this test?
stdout: inactive

stdin: Recorded test outcome, item `O=C1c2ccccc2-c2c1c1ccc([N+](=O)[O-])cc1c(=O)n2CCCn1ccnc1`
stdout: inactive

stdin: Which outcome was entered for the compound `N#Cc1ccc(NC(=O)Nc2nc3ccc(OC(F)(F)F)cc3s2)cc1` in this test?
stdout: inactive

stdin: Test call, this compound: `O=c1c(-c2nc3ccccc3[nH]2)cc2ccccc2n1Cc1cn(Cc2ccccc2Cl)nn1`
stdout: inactive

====

Tested on: SW-620 colon
Test: NCI tumour cell line growth inhibition, 48 h
Listed compounds paired with reported TGI

- N#CC1=C(S)N(C2OC(CO)C(O)C(O)C2O)C(c2ccccc2)=CC1c1cccs1 (stereo not drawn): 65 µM

stdin: Given the compound `C[C@]12CC/C(=N\O)C=C1CC[C@@H]1[C@@H]2CC[C@]2(C)C(=N/O)/C(=C/c3ccncc3)C[C@@H]12` , what is its reported TGI?
stdout: > 100 µM

stdin: Bench note: what TGI did CC(CCC(=O)O)c1ccc(Br)cc1 (stereo not drawn) show?
stdout: > 100 µM

stdin: Please look up its TGI: `ClCCc1ccccc1CC1=NCCc2ccccc21`
stdout: > 100 µM

stdin: Entry under review: `CO/N=C(\C(=O)[N-][n+]1cnn(CC(=O)O)c1)c1csc(N)n1` . Reported TGI?
stdout: > 10 µM

stdin: Give its TGI value. Item: `CCCCCN(CCCCC)C(=O)[C@H](CCC(=O)OCc1ccccc1)NC(=O)c1cc2ccccc2[nH]1`
stdout: > 100 µM

stdin: Quick one: TGI for `COC(=O)[C@]1(Cc2ccc3ccccc3c2)CCCCCCN1C(=O)c1ccccc1` ?
stdout: > 60.3 µM

stdin: # get_value(readout='TGI', item= `O=c1oc2ccccc2n1CCCn1c(=O)oc2ccccc21` )
stdout: > 100 µM

====

System: HOP-92 NSCLC
Experiment: NCI tumour cell line growth inhibition, 48 h
reported-endpoint: TGI (µM)
API: value field is a number in µM; no unit string.

For orientation, consider the following solved cases.
* CCOC(=O)/C=C(/C(=O)OCC)n1ccc(=O)n(CC(=O)OCC)c1=O | 1.46
* C/C(=N\Nc1nc2ccccc2o1)c1cc2ccccc2cn1 | 11.1
* C=C(C)C1CC2=C(O1)C(=O)c1cccc(O)c1C2=O (stereo unspecified) | 11.5
* CC(C)=CCC/C(C)=C/CC/C(C)=C/C1CCC(=O)C1(C)C (stereo unspecified) | 51.7
* O=c1c(-c2nc3ccccc3[nH]2)cc2ccccc2n1Cc1cn(Cc2ccccc2Cl)nn1 | 4.93

stdin: Entry under review: `COc1ccc2c(c1)c(=O)c1c(NCCCN(C)C)ccc3ncn2c31` . Reported TGI?
stdout: 19.5

stdin: Which value of TGI has been reported for `CCCCCCCCCC[N+](C)(C)C` in the records?
stdout: 4.6

stdin: Which TGI value is on record for `CC(C)=CCc1c(O)c(C(=O)CC(C)C)c(O)c2c(-c3ccccc3)cc(=O)oc12` ?
stdout: 4.84

stdin: Endpoint output: TGI of O=C1CCC(N2C(=O)c3cccc(NCCOCCOCCNC(=O)c4cc5c(o4)C(=O)c4ccccc4C5=O)c3C2=O)C(=O)N1 (stereo unspecified) . Value?
stdout: 12.5

====

Tested on: CCRF-CEM leukemia
Assay: NCI tumour cell line growth inhibition, 48 h
reported-endpoint: TGI

Answered cases to consult:
- COc1cc(/C=C2\Cc3ccccc3C2=O)cc(OC)c1OC: > 100 µM
- CCOC(=O)/C=C/c1c[nH]c(=O)[nH]c1=O: > 75 µM
- C/C(=N\Nc1nc2ccccc2o1)c1cc2ccccc2cn1: > 38.5 µM
- N#Cc1ccc(NC(=O)Nc2nc3ccc(OC(F)(F)F)cc3s2)cc1: > 100 µM
- O=P(O)(O)CC1OC(CO)C(O)C1O (configuration not stated): > 100 µM

stdin: Please look up its TGI: CS(=O)(=O)CCC(N)P(=O)(O)O (configuration not stated)
stdout: > 100 µM

stdin: Give its TGI value. Item: O=C1CSC(c2cccc(Oc3ccccc3)c2)N1c1cccc(Cl)c1Cl (configuration not stated)
stdout: > 100 µM

====

Test system: COLO 205 colon
Test: NCI tumour cell line growth inhibition, 48 h
reported-endpoint: log10 TGI (log10 of the value in µM)
Plainly stated, the numbers are log10 of TGI given in µM.

• CSS(C)(=O)=O = 1.60

Read the next record carefully.
stdin: Please report the recorded log10 TGI for CC1(C)CC[C@]2(C(=O)O)CC[C@]3(C)C(=CC[C@@H]4[C@@]5(C)CC[C@H](OC6OC(CO)C(O)C(O)C6O)C(C)(C)[C@@H]5CC[C@]43C)[C@@H]2C1 (some centres undefined) .
stdout: 0.51
